# subject_of_test: full-length human PKCι (Homo sapiens, UniProt P41743)
# Construct: Recombinant, full-length human PKCι expressed in Sf21 insect cells is also commercially available
# experiment_notes: PKCι IC50 IMAP assay, full-length PKCι at 150 μM ATP
# conditions_used: read-out: IC50 in IMAP assay against full length PKCi at 150 μM ATP
measured_endpoint: IC50

Check out these entries, answers already filled in.
Request the reported IC50 associated with Fc1cc(F)c(Nc2cc(-c3nc(N4CCNCC4)c4c(C5CCC5)cncc4n3)ccn2)nc1F
< 100 nM

# IC50 lookup, item FC(F)(F)C1CN(c2nc(-c3ccnc(Cl)c3)nc3cncc(C4CC4)c23)CCN1 (stereo not shown)
100 to 1000 nM

# get_value(readout='IC50', item= FC(F)(F)c1cccc(Nc2cc(-c3nc(N4CCNCC4)c4c(C5CC5)cncc4n3)ccn2)n1 )
< 100 nM

Others:
Given the entry Fc1ccc(Nc2cc(-c3nc(N4CCNCC4)c4c(C5CC5)cncc4n3)c(F)cn2)cc1 , report its measured IC50.
< 100 nM

* * *

Listing of recorded IC50 by entry.
# subject_of_test: full-length human PKCι (Homo sapiens, UniProt P41743)
# Construct: Recombinant, full-length human PKCι expressed in Sf21 insect cells is also commercially available
# Sequence (P41743 1-596): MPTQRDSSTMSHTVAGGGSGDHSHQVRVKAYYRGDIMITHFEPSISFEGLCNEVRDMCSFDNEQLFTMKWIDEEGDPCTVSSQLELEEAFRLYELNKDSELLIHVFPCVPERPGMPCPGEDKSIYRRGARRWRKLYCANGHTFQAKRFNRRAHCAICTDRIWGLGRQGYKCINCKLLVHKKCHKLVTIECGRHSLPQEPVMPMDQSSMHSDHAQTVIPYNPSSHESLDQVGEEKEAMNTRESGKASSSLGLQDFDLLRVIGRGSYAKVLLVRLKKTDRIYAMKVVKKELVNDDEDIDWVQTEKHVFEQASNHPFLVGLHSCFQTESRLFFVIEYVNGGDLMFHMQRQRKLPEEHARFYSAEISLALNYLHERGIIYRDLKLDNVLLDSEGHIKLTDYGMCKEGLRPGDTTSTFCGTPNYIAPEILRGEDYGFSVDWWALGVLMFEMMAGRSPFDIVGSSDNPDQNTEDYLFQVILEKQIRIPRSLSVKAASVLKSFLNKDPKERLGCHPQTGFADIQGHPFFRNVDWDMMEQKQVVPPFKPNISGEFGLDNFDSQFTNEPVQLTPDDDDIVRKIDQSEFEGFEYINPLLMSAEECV
# experiment_notes: PKCι IC50 IMAP assay, full-length PKCι at 150 μM ATP
# conditions_used: read-out: IC50 in IMAP assay against full length PKCi at 150 μM ATP

Check out these entries, answers already filled in.
Entry under review: c1cc(-c2nc(N3CCNCC3)c3c(C4CC4)cncc3n2)c2cc(C3CCCCC3)[nH]c2n1 [Example 2152] . Reported IC50?
< 100 nM

Recorded IC50 for CCc1ccc(Nc2cc(-c3nc(N4CCNCC4)c4c(C5CC5)cncc4n3)ccn2)c(F)c1 [Example 717] , please?
< 100 nM

Suppose we examine the molecule Cc1ccc(Nc2cc(-c3nc(N4CCNCC4)c4c(C5CC5)cncc4n3)ccn2)c(Cl)c1 [Example 572] ; what IC50 value has been reported?
< 100 nM

Look up IC50 for this molecule: N#Cc1ccc(Nc2cc(-c3nc(N4CCNCC4)c4c(C5CC5)cncc4n3)ccn2)cc1 [Example 645]
< 100 nM

Return reported IC50; argument: Fc1cccc(Nc2cc(-c3nc(N4CCNCC4)c4c(C5CC5)cncc4n3)ccn2)c1Cl [Example 578]
< 100 nM

Continuing:
If you can, please state the reported IC50 value of c1ccc(C2(c3cc4c(-c5nc(N6CCNCC6)c6c(C7CCC7)cncc6n5)ccnc4[nH]3)CC2)cc1 [Example 2113] .
< 100 nM

So what does the record say about IC50 for c1ccc(C[C@H]2CN(c3nc(N4CCOCC4)nc4cnccc34)CCN2)cc1 [Example 1000] ?
1000 to 10000 nM

Can you look up the measured IC50 of COc1cncc2nc(-c3ccncc3)nc(N3CCN(CC(N)=O)[C@@H](Cc4ccccc4)C3)c12 [Example 48] for me?
1000 to 10000 nM
